Known drug sensitivity score of a selection of compounds
system: CAF#4 (primary prostate cancer-associated fibroblasts of iCAF-like type); assay: drug sensitivity score (DSS2, normalised partial AUC of dose-response, 72 h CellTiter-Glo viability) (DSS (dimensionless)); higher = more sensitive (stronger growth inhibition / cytotoxicity); extreme values may be limits of the assay
# print the numeric value only

[[record]]
compound = "CS(=O)(=O)N1CCN(Cc2cc3nc(-c4cccc5[nH]ncc45)nc(N4CCOCC4)c3s2)CC1 [Pictilisib] (tested concentration range 1-10000 nM)"
measured_property = "drug sensitivity score"
observed = 10.9

[[record]]
compound = "Cc1c2oc3c(C)ccc(C(=O)N[C@@H]4C(=O)N[C@H](C(C)C)C(=O)N5CCC[C@H]5C(=O)N(C)CC(=O)N(C)[C@@H](C(C)C)C(=O)O[C@@H]4C)c3nc-2c(C(=O)N[C@@H]2C(=O)N[C@H](C(C)C)C(=O)N3CCC[C@H]3C(=O)N(C)CC(=O)N(C)[C@@H](C(C)C)C(=O)O[C@@H]2C)c(N)c1=O [Dactinomycin] (tested concentration range 0.1-1000 nM)"
measured_property = "drug sensitivity score"
observed = 17.2

[[record]]
compound = "Cc1c(-c2c(-c3ccc(F)o3)sc3ncnc(O[C@H](Cc4ccccc4OCc4ccnn4CC(F)(F)F)C(=O)O)c23)ccc(OCCN2CCN(C)CC2)c1Cl (tested concentration range 0.1-1000 nM)"
measured_property = "drug sensitivity score"
observed = 0


Let's switch to this compound now.
Record CC(C)C(=O)Nc1ccc([N+](=O)[O-])c(C(F)(F)F)c1 [Flutamide] (tested concentration range 1-10000 nM) has CAF#4 drug sensitivity score equal to 4.8

----------
tested on: CAF#5 (primary prostate cancer-associated fibroblasts of myCAF-like type); assay: drug sensitivity score (DSS2, normalised partial AUC of dose-response, 72 h CellTiter-Glo viability) (DSS (dimensionless)); higher = more sensitive (stronger growth inhibition / cytotoxicity); extreme values may be limits of the assay
Measured property: drug sensitivity score
Answer field: number only, no words.

[[record]]
molecule = "Nc1nc(Nc2ccc3c(c2)CC[C@@H](N2CCCC2)CC3)nn1-c1cc2c(nn1)-c1ccccc1CCC2 [Bemcentinib] (tested concentration range 1-10000 nM)"
observed = 4.1


drug sensitivity score value, target or system CAF#5, for CC[C@]1(O)C[C@H]2CN(CCc3c([nH]c4ccccc34)[C@@](C(=O)OC)(c3cc4c(cc3OC)N(C=O)[C@H]3[C@@](O)(C(=O)OC)[C@H](OC(C)=O)[C@]5(CC)C=CCN6CC[C@]43[C@@H]65)C2)C1 [Vincristine] (tested concentration range 0.1-1000 nM) : 4.3

----------
system: CAF#3 (primary prostate cancer-associated fibroblasts of myCAF-like type); assay: drug sensitivity score (DSS2, normalised partial AUC of dose-response, 72 h CellTiter-Glo viability) (DSS (dimensionless)); higher = more sensitive (stronger growth inhibition / cytotoxicity); extreme values may be limits of the assay
Measured property: drug sensitivity score
Field format: numeric only.

Answered examples (3):
[[record]]
compound = "Cc1sc2c(c1C)C(c1ccc(Cl)cc1)=N[C@@H](CC(=O)Nc1ccc(OCCOCCOCCOCCNc3cccc4c3C(=O)N(C3CCC(=O)NC3=O)C4=O)cc1)c1nnc(C)n1-2 (some centres undefined) [ARV-825] (tested concentration range 0-300 nM)"
observed = 15.6

[[record]]
compound = "Cn1cc(-c2ccc(F)c(C(F)(F)F)c2)nc1C1CCN(c2ncnc3[nH]ncc23)CC1 (tested concentration range 1-10000 nM)"
observed = 0

[[record]]
compound = "CC[C@H](C)C(=O)O[C@H]1C[C@@H](C)C=C2C=C[C@H](C)[C@H](CC[C@@H]3C[C@@H](O)CC(=O)O3)[C@H]21 [Lovastatin] (tested concentration range 1-10000 nM)"
observed = 0.3


// field: drug sensitivity score; key: C=C1C[C@@H]2CC[C@@]34C[C@H]5O[C@H]6[C@@H](O3)[C@H]3O[C@H](CC[C@@H]3O[C@H]6[C@H]5O4)CC(=O)C[C@@H]3[C@@H](OC)[C@@H](C[C@H](O)CN)O[C@H]3C[C@H]3O[C@@H](CC[C@@H]1O2)C[C@@H](C)C3=C [Eribulin] (tested concentration range 0.1-1000 nM) ; value = 11.8

----------
test system: CAF#3; assay: drug sensitivity score (DSS2, normalised partial AUC of dose-response, 72 h CellTiter-Glo viability) (DSS (dimensionless)); higher = more sensitive (stronger growth inhibition / cytotoxicity); extreme values may be limits of the assay
Note to self: values exactly at 0.5 are Yes. So drug sensitivity score at or above 0.5 is Yes, below is No.

Previously resolved entries follow.
[[record]]
molecule = "Cc1nc2cccc(N)c2c(=O)n1C1CCC(=O)NC1=O (configuration not stated) [Avadomide] (tested concentration range 1-10000 nM)"
system_tested = "CAF#3"
assigned_class = "No"

[[record]]
molecule = "COCCNCc1ccc(-c2cc3nccc(Oc4ccc(NC(=O)C5(C(=O)Nc6ccc(F)cc6)CC5)cc4F)c3s2)nc1 [Sitravatinib] (tested concentration range 0.2-2500 nM)"
system_tested = "CAF#3"
assigned_class = "Yes"

[[record]]
molecule = "O=C(/C=C/c1cccc(S(=O)(=O)Nc2ccccc2)c1)NO [Belinostat] (tested concentration range 1-10000 nM)"
system_tested = "CAF#3"
assigned_class = "Yes"


Query: State whether the measured drug sensitivity score reaches 0.5, counting equality as reaching it, for CCOc1cc2ncc(C#N)c(Nc3ccc(OCc4ccccn4)c(Cl)c3)c2cc1NC(=O)/C=C/CN(C)C [Neratinib] (tested concentration range 0.1-1000 nM)
Reply: Yes

----------
test system: CAF#7 (primary prostate cancer-associated fibroblasts of myCAF-like type); assay: drug sensitivity score (DSS2, normalised partial AUC of dose-response, 72 h CellTiter-Glo viability) (DSS (dimensionless)); higher = more sensitive (stronger growth inhibition / cytotoxicity); extreme values may be limits of the assay
drug sensitivity score by entry:
Field format: numeric only.

Below, each entry is followed by its recorded drug sensitivity score result.
[[record]]
compound = "CN1CCN(c2nc(C3=C(c4c[nH]c5ccccc45)C(=O)NC3=O)c3ccccc3n2)CC1 [Sotrastaurin] (tested concentration range 1-10000 nM)"
system_tested = "CAF#7"
measured_property = "drug sensitivity score"
observed = 0

[[record]]
compound = "CN(C)C[C@@H]1CCn2cc(c3ccccc32)C2=C(C(=O)NC2=O)c2cn(c3ccccc23)CCO1 [Ruboxistaurin] (tested concentration range 1-10000 nM)"
system_tested = "CAF#7"
measured_property = "drug sensitivity score"
observed = 5.9

[[record]]
compound = "CC1(C)CC[C@]2(NC(=O)C(C)(F)F)CC[C@]3(C)[C@H](C(=O)C=C4[C@@]5(C)C=C(C#N)C(=O)C(C)(C)[C@@H]5CC[C@]43C)[C@@H]2C1 [Omaveloxolone] (tested concentration range 1-10000 nM)"
system_tested = "CAF#7"
measured_property = "drug sensitivity score"
observed = 4.8

[[record]]
compound = "CN(Cc1cnc2nc(N)nc(N)c2n1)c1ccc(C(=O)N[C@@H](CCC(=O)O)C(=O)O)cc1 [Methotrexate] (tested concentration range 0.5-5000 nM)"
system_tested = "CAF#7"
measured_property = "drug sensitivity score"
observed = 0

[[record]]
compound = "CC(C)(O)CNc1nc(Nc2ccnc(C(F)(F)F)c2)nc(-c2cccc(C(F)(F)F)n2)n1 [Enasidenib] (tested concentration range 1-10000 nM)"
system_tested = "CAF#7"
measured_property = "drug sensitivity score"
observed = 0

[[record]]
compound = "N#CCNC(=O)c1ccc(-c2ccnc(Nc3ccc(N4CCOCC4)cc3)n2)cc1 [Momelotinib] (tested concentration range 1-10000 nM)"
system_tested = "CAF#7"
measured_property = "drug sensitivity score"
observed = 3.1

[[record]]
compound = "CCN(c1cc(-c2ccc(CN3CCOCC3)cc2)cc(C(=O)NCc2c(C)cc(C)[nH]c2=O)c1C)C1CCOCC1 [Tazemetostat] (tested concentration range 1-10000 nM)"
system_tested = "CAF#7"
measured_property = "drug sensitivity score"
observed = 0

[[record]]
compound = "O=S(=O)(c1cccc2c(O)nccc12)N1CCCNCC1 [Hydroxyfasudil] (tested concentration range 1.9-19000 nM)"
system_tested = "CAF#7"
measured_property = "drug sensitivity score"
observed = 0


drug sensitivity score reported for this compound Cc1cc(-c2nc(-c3ccc(OC(F)(F)F)cc3)no2)nn1Cc1ccnc(N2CCN(C3CC3)CC2)c1 [BAY 87-2243] (tested concentration range 0.1-1000 nM) : 0

Sure, the documented drug sensitivity score for COc1cc2c(Oc3ccc(NC(=O)C4(C(=O)Nc5ccc(F)cc5)CC4)cc3F)ccnc2cc1OCCCN1CCOCC1 [Foretinib] (tested concentration range 0.1-1000 nM) is 7

CN(CC(=O)N(Cc1ccc(C2CCCCC2)cc1)c1ccc(C(=O)O)cc1)S(=O)(=O)c1c(F)c(F)c(F)c(F)c1F [SH-4-54] (tested concentration range 2.5-25000 nM) yielded drug sensitivity score of 4.6

drug sensitivity score measured on CCc1c2c(nc3ccc(O)cc13)-c1cc3c(c(=O)n1C2)COC(=O)[C@]3(O)CC [SN-38] (tested concentration range 1-10000 nM) = 11.8

For COCCNCc1ccc(-c2cc3nccc(Oc4ccc(NC(=O)C5(C(=O)Nc6ccc(F)cc6)CC5)cc4F)c3s2)nc1 [Sitravatinib] (tested concentration range 0.2-2500 nM) the compound record lists drug sensitivity score as 5.7

For this compound ( CCCOc1ccn2c(C(C)=O)cc(-c3ccccc3S(C)(=O)=O)c2c1 [GSK2801] (tested concentration range 1-10000 nM) ), measured drug sensitivity score is 0

For this compound ( Nc1ncnc2c1nc(Cl)n2[C@@H]1O[C@H](CO)[C@@H](O)[C@H]1O [8-chloro-adenosine] (tested concentration range 5-50000 nM) ), measured drug sensitivity score is 2

The reported value for O=C1CCC(N2C(=O)c3ccccc3C2=O)C(=O)N1 (configuration not stated) [Thalidomide] (tested concentration range 1-10000 nM) in terms of drug sensitivity score is 0

Measured drug sensitivity score, CC[C@H](C)C(=O)O[C@H]1C[C@@H](C)C=C2C=C[C@H](C)[C@H](CC[C@@H]3C[C@@H](O)CC(=O)O3)[C@H]21 [Lovastatin] (tested concentration range 1-10000 nM) : 3

For Cc1nc(Nc2ncc(C(=O)Nc3c(C)cccc3Cl)s2)cc(N2CCN(CCO)CC2)n1 [Dasatinib] (tested concentration range 0.1-1000 nM) the compound record lists drug sensitivity score as 15.3

The value of drug sensitivity score measured for the compound Cc1[nH]nc(C(F)(F)F)c1Cc1sc2c(c1C(=O)N1C[C@](C)(O)CO1)c(=O)n(C)c(=O)n2C(C)C [AZD3965] (tested concentration range 0.1-1000 nM) turned out to be 0

Recorded drug sensitivity score (compound CNS(=O)(=O)Nc1nccc(Cc2c(C)c3ccc(Oc4ncccn4)cc3oc2=O)c1F (tested concentration range 0.1-1000 nM) ): 0

Query C/C=C1\NC(=O)[C@H]2CSSCC/C=C/[C@H](CC(=O)N[C@H](C(C)C)C(=O)N2)OC(=O)[C@H](C(C)C)NC1=O [Romidepsin] (tested concentration range 0.1-1000 nM) yields drug sensitivity score of 24.4

The reported drug sensitivity score of the compound CC1(C)NC(=O)N(c2ccc([N+](=O)[O-])c(C(F)(F)F)c2)C1=O [Nilutamide] (tested concentration range 1-10000 nM) was 0
